Tested on: Plasmopara vilicola (the causal agent of grape downy mildew)
test: Test A: grape downy mildew, test suspension sprayed on grape seedlings after inoculation, visual disease rating
Type: in vivo
conditionLabel: ** tested at l0 ppm
resultType: Percent Disease Control, Test A

compound	target	resultType	resultValue
C[C@]1(c2ccccc2)CC(c2csc(C3CCN(C(=O)Cn4nc(C(F)(F)F)cc4C(F)(F)F)CC3)n2)=NO1 [Compound 260]	Plasmopara vilicola (the causal agent of grape downy mildew)	Percent Disease Control, Test A	100%
Cc1cc(C(F)(F)F)nn1CC(=O)N1CCC(c2nc(-c3cc(-c4ccccc4)no3)cs2)CC1 [Compound 30]	Plasmopara vilicola (the causal agent of grape downy mildew)	Percent Disease Control, Test A	31%
Cc1cc(C(F)(F)F)nn1CC(=O)N1CCC(c2nc(C3=NOC(c4ccsc4)C3)cs2)CC1 (centres unmarked) [Compound 148]	Plasmopara vilicola (the causal agent of grape downy mildew)	Percent Disease Control, Test A	100%
O=C(Cn1nc(C(F)(F)F)cc1Cl)N1CCC(c2nc(C3=NO[C@]4(CCc5ccccc54)C3)cs2)CC1 [Compound 232]	Plasmopara vilicola (the causal agent of grape downy mildew)	Percent Disease Control, Test A	100%
Cc1cc(C(F)(F)F)nn1CC(=O)N1CCC(c2nc(C3=NOC(n4c(=O)n(C)c5ccccc54)C3)cs2)CC1 (centres unmarked) [Compound 275]	Plasmopara vilicola (the causal agent of grape downy mildew)	Percent Disease Control, Test A	99%
